Molecular target: T1, human RANK-L (human, UniProt O14788 140-317, limits assumed)
T1 construct: Soluble protein, used coated, biotinylated or labelled in ELISA, AlphaScreen, FMAT and Biacore; also called hRANK-L; soluble human RANK-L
T1 sequence (looked up): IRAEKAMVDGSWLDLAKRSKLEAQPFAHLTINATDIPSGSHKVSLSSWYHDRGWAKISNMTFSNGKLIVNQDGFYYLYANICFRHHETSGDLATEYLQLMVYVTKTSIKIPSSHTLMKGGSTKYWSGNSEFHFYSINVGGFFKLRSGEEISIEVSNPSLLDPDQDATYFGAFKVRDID
Assay: SPR Biacore 3000, hRANK-L on CM5, 100 nM Nanobody; only indicative (one concentration)
QUANTITY MEASURED: kon
Note: a bare number is incomplete; add the unit.

As a guide, the following entries are already answered.
{"BINDER": "RANKL18hum6 (VHH) VHH: EVQLVESGGGLVQPGGSLRLSCAASGRTFSRSAMGWFRQAPGKGREFVGFITGSGGTTYYADSVKGRFTISRDNAQNPVYLQMNSLRPEDTAVYYCAVYRRTYISSTYSESSEYDYWGQGTLVTVSS", "QUANTITY MEASURED": "kon", "RESULT": "500000 M⁻¹ s⁻¹"}
{"BINDER": "RANKL13hum2 (VHH, name in Kabat numbering) VHH: EVQLVESGGGLVQPGGSLRLSCAASGRTFSSYPMGWFRQAPGKGREFVASITGSGGSTYYADSVKGRFTISRDNAKNTLYLQMNSLRPEDTAVYSCAAYIRPDTYLSRDYRKYDYWGQGTLVTVSS", "QUANTITY MEASURED": "kon", "RESULT": "264000 M⁻¹ s⁻¹"}
{"BINDER": "RANKL13hum3 (VHH, name in Kabat numbering, also called RANL13hum3) VHH: EVQLVESGGGLVQPGGSLRLSCAASGRTFRSYPMGWFRQAPGKGREFVSSITGSGGSTYYADSVKGRFTISRDNAKNTLYLQMNSLRPEDTAVYSCAAYIRPDTYLSRDYRKYDYWGQGTLVTVSS", "QUANTITY MEASURED": "kon", "RESULT": "659000 M⁻¹ s⁻¹"}

Suppose we examine the binder RANKL13hum1 (VHH) VHH: EVQLVESGGGLVQPGGSLRLSCAASGFTFRSYPMGWFRQAPGKGREFVASITGSGGSTYYADSVKGRFTISRDNAKNTLYLQMNSLRPEDTAVYSCAAYIRPDTYLSRDYRKYDYWGQGTLVTVSS ; what kon value has been reported?
1.37e+06 M⁻¹ s⁻¹
